- targetUnderTest: T1, cynomolgus monkey IL-15 (mfIL-15+mfIL-15Rα complex), tag on IL-15Rα not stated (cynomolgus monkey (Macaca fascicularis), UniProt P40221 49-162; Q13261 31-128)
- T1 construct: also called monkey IL-15+IL-15Rα superagonist
- T1 chain 1: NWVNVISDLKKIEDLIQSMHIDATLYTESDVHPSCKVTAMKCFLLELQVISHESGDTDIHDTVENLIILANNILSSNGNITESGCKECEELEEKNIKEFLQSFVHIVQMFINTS
- T1 chain 2: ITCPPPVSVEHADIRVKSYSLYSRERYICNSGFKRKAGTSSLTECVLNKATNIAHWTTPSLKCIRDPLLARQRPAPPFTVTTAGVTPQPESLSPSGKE
- testProtocol: SPR (Biacore T200), as in Example 2.2
Kindly supply the reported koff values for the records listed here.
One number for each entry, in s⁻¹.

Example cases with answers are listed next.
binder: anti-human IL-15 monoclonal antibody AMG714 (antibody, V domains shown) VH: EVQLVQSGAEVKKPGESLKISCKVSGYFFTTYWIGWVRQMPGKGLEYMGIIYPGDSDTRYSPSFQGQVTISADKSISTAYLQWSSLKASDTAMYYCARGGNWNCFDYWGQGTLVTVSS VL: EIVLTQSPGTLSLSPGERATLSCRASQSVSSSYLAWYQQKPGQAPRLLIYGASRRATGIPDRFSGSGSGTDFTLTISRLEPEDFAVYYCQRYGSSHTFGQGTKLEISR
unitText: s⁻¹
koff: 0.00124

binder: anti-human IL-15 monoclonal antibody R1A3 (antibody, V domains shown, Found from a fully human Fab phage library) VH: EVQLVQSGAEVKKPGESLKISCKVSGYFFTTYWIGWVRQMPGKGLEYMGIIYPGDSDTRYSPSFQGQVTISADKSISTAYLQWSSLKASDTAMYYCARGGHWNAFDFWGQGTLVTVSS VL: EIVLTQSPGTLSLSPGERATLSCRASQSVSSSYLAWYQQKPGQAPRLLIYGASRRATGIPDRFSGSGSGTDFTLTISRLEPEDFAVYYCQQFDASQTFGQGTKLEISR
unitText: s⁻¹
koff: 0.000398

binder: anti-human IL-15 monoclonal antibody R2H2VH+R22F11VK (antibody, V domains shown, Mutant of R1A3; it was captured by anti-human IgG (Fc) in SPR and detected with anti-human IgG in ELISA, so a human Fc is implied; also called R2H2VH+R22FVK) VH: EVQLVQSGAEVKKPGESLKISCKVSGYFFTTYWIGWVRQMPGKGLEYMGIIYPGDSDTRYSPSFQGQVTISADKSISTAYLQWSSLKASDTAMYYCARGGHWNSFDTWGQGTLVTVSS VL: EIVLTQSPGTLSLSPGERATLSCRASQSVIGSYLAWYQQKPGQAPRLLIYSASKLASGIPDRFSGSGSGTDFTLTISRLEPEDFAVYYCQQHYSTPGTFGQGTKVEIK
unitText: s⁻¹
koff: 0.000171

Now examine the next entry.
**Query** Requested field: koff. Item: anti-human IL-15 monoclonal antibody R4G4VH+R22F11VK (antibody, V domains shown, Mutant of R1A3; it was captured by anti-human IgG (Fc) in SPR and detected with anti-human IgG in ELISA, so a human Fc is implied; also called R4G4VH+R22FVK) VH: EVQLVQSGAEVKKPGESLKISCKVSGYFFTTYWIGWVRQMPGKGLEYMGIIYPGDSDTRYSPSFQGQVTISADKSISTAYLQWSSLKASDTAMYYCARGGHWNAFDIWGQGTLVTVSS VL: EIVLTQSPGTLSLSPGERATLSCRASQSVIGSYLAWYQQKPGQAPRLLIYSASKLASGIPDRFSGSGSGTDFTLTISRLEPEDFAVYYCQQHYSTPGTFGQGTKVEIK
**Result** 0.000172
